- System: MDA-MB-468 spheroids with HUVEC/MSC, viability
- Method Notes: Anticancer human tumor MDA-MB-468 cell line growth inhibition [PI3K]; active = viability on the fitted dose curve at most 10% of control; inactive = the rest;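 also: spheroids exposed to agents for seven days before readout; 100% = DMSO vehicle control viability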
- Particulars: second compound 0.0316 µM; first compound 0.0316 µM
The reply should name one outcome from active, inactive

Here's what some known entries look like.
{"columns": ["Compound", "Label Class"],
 "data": [
  ["C[C@@H](NC(=O)c1ncnc(N)c1Cl)c1ncc(C(=O)Nc2cc(C(F)(F)F)c(Cl)cn2)s1 + COc1c(OCCCN2CCOCC2)ccc2c3n(c(=NC(=O)c4cnc(N)nc4)nc12)CCN3", "inactive"],
  ["CC(C)n1nc(-c2ccc3oc(N)nc3c2)c2c(N)ncnc21 + Cc1nc(NC(=O)N2CCCC2C(N)=O)sc1-c1ccnc(C(C)(C)C(F)(F)F)c1", "inactive"],
  ["C[C@@H](NC(=O)c1ncnc(N)c1Cl)c1ncc(C(=O)Nc2cc(C(F)(F)F)c(Cl)cn2)s1 + CC(Nc1ncnc2nc[nH]c12)c1cc2cccc(Cl)c2c(=O)n1-c1ccccc1", "inactive"],
  ["Cn1ncc(Cl)c1-c1cc(C(=O)NC(CN)Cc2cccc(F)c2)sc1Cl (stereo not given) + Cc1nc(NC(=O)N2CCCC2C(N)=O)sc1-c1ccnc(C(C)(C)C(F)(F)F)c1", "inactive"],
  ["Cn1ncnc1[C@H]1c2n[nH]c(=O)c3cc(F)cc(c23)N[C@@H]1c1ccc(F)cc1 + Cc1nc(NC(=O)N2CCCC2C(N)=O)sc1-c1ccnc(C(C)(C)C(F)(F)F)c1", "inactive"]
]}

Dear all, I need the recorded test outcome for CC(C)n1nc(-c2ccc3oc(N)nc3c2)c2c(N)ncnc21 + CC(Nc1ccc2c(c1)OCCn1cc(N3C(=O)OCC3C(F)F)nc1-2)C(N)=O , thank you.
inactive

Please indicate how the test categorized CC(C)NCC(C(=O)N1CCN(c2ncnc3c2C(C)CC3O)CC1)c1ccc(Cl)cc1 (stereo not given) + CC(Nc1ccc2c(c1)OCCn1cc(N3C(=O)OCC3C(F)F)nc1-2)C(N)=O .
inactive

I'd appreciate the recorded outcome for CCN1CCN(Cc2ccc(Nc3ncc(F)c(-c4cc(F)c5nc(C)n(C(C)C)c5c4)n3)nc2)CC1 + CC(Nc1ncnc2nc[nH]c12)c1cc2cccc(Cl)c2c(=O)n1-c1ccccc1 from this test.
inactive

What call does the record list for CC1(C)CCC(Nc2ncc(C(F)(F)F)c(-c3c[nH]c4c(P(C)(C)=O)c(C#N)ccc34)n2)CN1 (stereo not given) + COc1c(OCCCN2CCOCC2)ccc2c3n(c(=NC(=O)c4cnc(N)nc4)nc12)CCN3 ?
active

Tell me the recorded outcome of this test for Cn1ncc(Cl)c1-c1cc(C(=O)NC(CN)Cc2cccc(F)c2)sc1Cl (stereo not given) + CC(Nc1ncnc2nc[nH]c12)c1cc2cccc(Cl)c2c(=O)n1-c1ccccc1 .
inactive

Hi team, can someone confirm the assay call for CC1(C)CCC(Nc2ncc(C(F)(F)F)c(-c3c[nH]c4c(P(C)(C)=O)c(C#N)ccc34)n2)CN1 (stereo not given) + CC(Nc1ccc2c(c1)OCCn1cc(N3C(=O)OCC3C(F)F)nc1-2)C(N)=O ?
inactive

What was the test verdict on CC1(C)CCC(Nc2ncc(C(F)(F)F)c(-c3c[nH]c4c(P(C)(C)=O)c(C#N)ccc34)n2)CN1 (stereo not given) + Cc1nc(NC(=O)N2CCCC2C(N)=O)sc1-c1ccnc(C(C)(C)C(F)(F)F)c1 ?
inactive

What was the test verdict on CC(Cn1ccc(-c2ccc(C#N)c(Cl)c2)n1)NC(=O)c1cc(C(C)O)[nH]n1 (stereo not given) + CC(Nc1ncnc2nc[nH]c12)c1cc2cccc(Cl)c2c(=O)n1-c1ccccc1 ?
inactive

Which outcome was assigned to CC(C)NCC(C(=O)N1CCN(c2ncnc3c2C(C)CC3O)CC1)c1ccc(Cl)cc1 (stereo not given) + Cc1nc(NC(=O)N2CCCC2C(N)=O)sc1-c1ccnc(C(C)(C)C(F)(F)F)c1 in this test?
inactive

Record lookup: outcome of this test for CC(Cn1ccc(-c2ccc(C#N)c(Cl)c2)n1)NC(=O)c1cc(C(C)O)[nH]n1 (stereo not given) + CC(Nc1ccc2c(c1)OCCn1cc(N3C(=O)OCC3C(F)F)nc1-2)C(N)=O ?
inactive

====

- System: MDA-MB-468 spheroids with HUVEC/MSC, viability
- Method Notes: Anticancer human tumor MDA-MB-468 cell line growth inhibition [PI3K]; active = viability on the fitted dose curve at most 10% of control; inactive = the rest;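 also: spheroids exposed to agents for seven days before readout; 100% = DMSO vehicle control viability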
- Particulars: second compound 1 µM; first compound 0.0316 µM
Respond with a class label; see active, inactive

{"columns": ["Compound", "Study Target", "Label Class"],
 "data": [
  ["C=CC(=O)N1CCN(c2nc(=O)n(-c3c(C)ccnc3C(C)C)c3nc(-c4c(O)cccc4F)c(F)cc23)C(C)C1 (stereo not drawn) + CC(Nc1ncnc2nc[nH]c12)c1cc2cccc(Cl)c2c(=O)n1-c1ccccc1", "MDA-MB-468 spheroids with HUVEC/MSC, viability", "inactive"],
  ["Cn1ncnc1[C@H]1c2n[nH]c(=O)c3cc(F)cc(c23)N[C@@H]1c1ccc(F)cc1 + CC(Nc1ncnc2nc[nH]c12)c1cc2cccc(Cl)c2c(=O)n1-c1ccccc1", "MDA-MB-468 spheroids with HUVEC/MSC, viability", "inactive"],
  ["Cn1nccc1Nc1nccc(-c2ccn(C(CO)c3ccc(Cl)c(F)c3)c(=O)c2)n1 (stereo not drawn) + CC(Nc1ccc2c(c1)OCCn1cc(N3C(=O)OCC3C(F)F)nc1-2)C(N)=O", "MDA-MB-468 spheroids with HUVEC/MSC, viability", "inactive"],
  ["CC(Cn1ccc(-c2ccc(C#N)c(Cl)c2)n1)NC(=O)c1cc(C(C)O)[nH]n1 (stereo not drawn) + Cc1nc(NC(=O)N2CCCC2C(N)=O)sc1-c1ccnc(C(C)(C)C(F)(F)F)c1", "MDA-MB-468 spheroids with HUVEC/MSC, viability", "inactive"],
  ["CCN1CCN(Cc2ccc(Nc3ncc(F)c(-c4cc(F)c5nc(C)n(C(C)C)c5c4)n3)nc2)CC1 + CC(Nc1ncnc2nc[nH]c12)c1cc2cccc(Cl)c2c(=O)n1-c1ccccc1", "MDA-MB-468 spheroids with HUVEC/MSC, viability", "inactive"],
  ["C[C@@H](NC(=O)c1ncnc(N)c1Cl)c1ncc(C(=O)Nc2cc(C(F)(F)F)c(Cl)cn2)s1 + CC(Nc1ncnc2nc[nH]c12)c1cc2cccc(Cl)c2c(=O)n1-c1ccccc1", "MDA-MB-468 spheroids with HUVEC/MSC, viability", "inactive"],
  ["CNC(=O)c1ccc(N2C(=S)N(c3ccc(C#N)c(C(F)(F)F)c3)C(=O)C2(C)C)cc1F + CC(Nc1ccc2c(c1)OCCn1cc(N3C(=O)OCC3C(F)F)nc1-2)C(N)=O", "MDA-MB-468 spheroids with HUVEC/MSC, viability", "inactive"],
  ["CC(C)n1nc(-c2ccc3oc(N)nc3c2)c2c(N)ncnc21 + COc1c(OCCCN2CCOCC2)ccc2c3n(c(=NC(=O)c4cnc(N)nc4)nc12)CCN3", "MDA-MB-468 spheroids with HUVEC/MSC, viability", "active"],
  ["C#Cc1c(F)ccc2cc(O)cc(-c3ncc4c(N5CC6CCC(C5)N6)nc(OCC56CCCN5CC(F)C6)nc4c3F)c12 (stereo not drawn) + COc1c(OCCCN2CCOCC2)ccc2c3n(c(=NC(=O)c4cnc(N)nc4)nc12)CCN3", "MDA-MB-468 spheroids with HUVEC/MSC, viability", "active"],
  ["CNC(=O)c1ccc(N2C(=S)N(c3ccc(C#N)c(C(F)(F)F)c3)C(=O)C2(C)C)cc1F + COc1c(OCCCN2CCOCC2)ccc2c3n(c(=NC(=O)c4cnc(N)nc4)nc12)CCN3", "MDA-MB-468 spheroids with HUVEC/MSC, viability", "active"]
]}

Called result for CC1(C)CCC(Nc2ncc(C(F)(F)F)c(-c3c[nH]c4c(P(C)(C)=O)c(C#N)ccc34)n2)CN1 (stereo not drawn) + COc1c(OCCCN2CCOCC2)ccc2c3n(c(=NC(=O)c4cnc(N)nc4)nc12)CCN3
active

What did the test return for Cn1ncnc1[C@H]1c2n[nH]c(=O)c3cc(F)cc(c23)N[C@@H]1c1ccc(F)cc1 + Cc1nc(NC(=O)N2CCCC2C(N)=O)sc1-c1ccnc(C(C)(C)C(F)(F)F)c1 ?
inactive

Short answer needed: outcome of this test for CC(C)NCC(C(=O)N1CCN(c2ncnc3c2C(C)CC3O)CC1)c1ccc(Cl)cc1 (stereo not drawn) + COc1c(OCCCN2CCOCC2)ccc2c3n(c(=NC(=O)c4cnc(N)nc4)nc12)CCN3 ?
active

====

- System: MDA-MB-468 spheroids with HUVEC/MSC, viability
- Method Notes: Anticancer human tumor MDA-MB-468 cell line growth inhibition [PI3K]; active = viability on the fitted dose curve at most 10% of control; inactive = the rest;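 also: spheroids exposed to agents for seven days before readout; 100% = DMSO vehicle control viability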
- Particulars: second compound 1 µM; first compound 0.000316 µM
Just give me one of these, please: 1.0 = active, 0.0 = inactive

Completed entries (count: 4):
{"columns": ["Molecule", "Study Target", "Label Class"],
 "data": [
  ["Cn1ncnc1[C@H]1c2n[nH]c(=O)c3cc(F)cc(c23)N[C@@H]1c1ccc(F)cc1 + CC(Nc1ncnc2nc[nH]c12)c1cc2cccc(Cl)c2c(=O)n1-c1ccccc1", "MDA-MB-468 spheroids with HUVEC/MSC, viability", 0.0],
  ["CC(=O)c1c(C)c2cnc(Nc3ccc(N4CCNCC4)cn3)nc2n(C2CCCC2)c1=O + Cc1nc(NC(=O)N2CCCC2C(N)=O)sc1-c1ccnc(C(C)(C)C(F)(F)F)c1", "MDA-MB-468 spheroids with HUVEC/MSC, viability", 0.0],
  ["CC(C)n1nc(-c2ccc3oc(N)nc3c2)c2c(N)ncnc21 + CC(Nc1ccc2c(c1)OCCn1cc(N3C(=O)OCC3C(F)F)nc1-2)C(N)=O", "MDA-MB-468 spheroids with HUVEC/MSC, viability", 0.0],
  ["CC(C)n1nc(-c2ccc3oc(N)nc3c2)c2c(N)ncnc21 + CC(Nc1ncnc2nc[nH]c12)c1cc2cccc(Cl)c2c(=O)n1-c1ccccc1", "MDA-MB-468 spheroids with HUVEC/MSC, viability", 0.0]
]}

Kindly consider the entry below.
Give the logged outcome of this assay for the following molecule: CC(=O)c1c(C)c2cnc(Nc3ccc(N4CCNCC4)cn3)nc2n(C2CCCC2)c1=O + COc1c(OCCCN2CCOCC2)ccc2c3n(c(=NC(=O)c4cnc(N)nc4)nc12)CCN3
1.0
